- test_protocol: Superoxide anion scavenging assay
- experimental_context: 100 μM
measurement_name: superoxide anion % scavenging (%)
I only need the number, in %, no unit after it.

Exercise: Return reported superoxide anion % scavenging; argument: Cc1ccc(S(=O)(=O)N(Cc2ccccc2)c2nccs2)cc1 [Compound 19]
Solution: 88

Exercise: Returns the measured superoxide anion % scavenging for the input compound. Input: Cc1ccc(S(=O)(=O)N(C)c2nccs2)cc1 [Compound 33]
Solution: 99

Exercise: Need superoxide anion % scavenging, item C=CCN(c1nccs1)S(=O)(=O)c1ccc(C)cc1 [Compound 26]
Solution: 94

Exercise: Please report the recorded superoxide anion % scavenging for COc1ccc(S(=O)(=O)N(Cc2ccccc2)c2nccs2)cc1 [Compound 20] .
Solution: 85

Exercise: Please give the measured superoxide anion % scavenging for this compound: CN(c1nccs1)S(=O)(=O)c1ccc(Br)cc1 [Compound 35]
Solution: 89

====

- test_protocol: Superoxide anion scavenging assay
- experimental_context: 25 μM
measurement_name: superoxide anion % scavenging (%)
Give just the numeric value; % need not be written.

Exercise: Data request, read-out superoxide anion % scavenging, for COc1ccc(S(=O)(=O)N(C)c2nccs2)cc1 [Compound 34]
Solution: 18.2

Exercise: Given the compound O=S(=O)(c1ccccc1)N(Cc1ccccc1)c1nccs1 [Compound 22] , what is its reported superoxide anion % scavenging?
Solution: 35

Exercise: Need superoxide anion % scavenging of COc1ccc(S(=O)(=O)N(Cc2ccccc2)c2nccs2)cc1 [Compound 20] , thanks.
Solution: 31

Exercise: # query: superoxide anion % scavenging of entry O=S(=O)(c1ccc(Cl)cc1)N(Cc1ccccc1)c1nccs1 [Compound 23]
Solution: 39

Exercise: Data request, read-out superoxide anion % scavenging, for O=S(=O)(c1ccc(Br)cc1)N(Cc1ccccc1)c1nccs1 [Compound 21]
Solution: 33

====

Exercise: for every item that follows, state its recorded DPPH % Scavenging.
- test_protocol: DPPH free radical scavenging activity
- experimental_context: 50 μM
Answer with the value and then the unit.

Exercise: Reported DPPH % Scavenging, compound O=S(=O)(c1ccccc1)N(Cc1ccccc1)c1nccs1 : ____
Solution: 50.1 ± 0.11%

Exercise: # input compound: CN(c1nccs1)S(=O)(=O)c1ccc(Br)cc1 ; wanted: its DPPH % Scavenging
Solution: 34.4 ± 0.8%

Exercise: Bench note: what DPPH % Scavenging did COc1ccc(S(=O)(=O)N(Cc2ccccc2)c2nccs2)cc1 show?
Solution: 49.2 ± 0.01%

Exercise: Item C=CCN(c1nccs1)S(=O)(=O)c1ccc(C)cc1 has what recorded DPPH % Scavenging?
Solution: 74.8 ± 0.3%

Exercise: Fill in the blank: the reported DPPH % Scavenging of O=S(=O)(c1ccc(F)cc1)N(Cc1ccccc1)c1nccs1 is ____.
Solution: 44.1 ± 0.55%

Exercise: Reported DPPH % Scavenging, compound CN(c1nccs1)S(=O)(=O)c1ccc([N+](=O)[O-])cc1 : ____
Solution: 55.02 ± 0.08%

Exercise: Which value of DPPH % Scavenging has been reported for O=S(=O)(c1ccc(Br)cc1)N(Cc1ccccc1)c1nccs1 in the records?
Solution: 63.5 ± 0.11%

Exercise: Recorded DPPH % Scavenging of O=S(=O)(c1ccc(Cl)cc1)N(Cc1ccccc1)c1nccs1 , please.
Solution: 57.3 ± 0.01%

Exercise: May I ask what DPPH % Scavenging has been recorded for Cc1ccc(S(=O)(=O)N(Cc2ccccc2)c2nccs2)cc1 ?
Solution: 65.8 ± 0.03%

Exercise: // lookup DPPH % Scavenging for O=[N+]([O-])c1ccc(S(=O)(=O)N(Cc2ccccc2)c2nccs2)cc1
Solution: 57.8 ± 0.11%

Exercise: Look at this compound and give its reported DPPH % Scavenging. CN(c1nccs1)S(=O)(=O)c1ccc(F)cc1
Solution: 67.3 ± 0.2%

Values compiled from paper PMC11327602.
